test system: Cryptococcus neoformans; conditions: Concentration 32 ug.mL-1; ASSAY_TEST Inhibition of Fungal Growth; detection method Resazurin; Absorption (OD600-OD570); plate type 384well; NBS; CORNING #3640
Description: Antifungal activity against Cryptococcus neoformans H99 ATCC 208821 (CO-ADD:FG_002); MIC in YNB media using NBS plates, by Resazurin OD(600-570)
Results with a measured potency or affinity are listed apart.
Values of Inhibition greater than or equal to -10% map to true (1); values below map to false (0).

# molecule, assigned class
data = [
    ("Cc1nnc2c(S(=O)(=O)N(Cc3ccccc3Cl)c3ccc(F)c(F)c3)cccn12", "true (1)"),
    ("O=C(Cn1nc2c(Sc3cccc(F)c3)nccn2c1=O)N1CCN(c2ccccc2)CC1", "true (1)"),
    ("Cc1cc(Br)ccc1NC(=O)Cn1nc2c(Sc3cccc(F)c3)nccn2c1=O", "true (1)"),
    ("COc1ccc(-c2cc3c4nn(CC(=O)Nc5c(C)cc(C)cc5C)c(=O)n4ccn3n2)cc1", "false (0)"),
    ("O=C(Cn1nc2c3sccc3ncn2c1=O)Nc1ccc2c(c1)OCO2", "false (0)"),
    ("Cc1ccc(CNC(=O)Cn2nc3c(Sc4ccc(C)cc4C)nccn3c2=O)cc1", "false (0)"),
    ("COc1ccccc1NC(=O)Cn1nc2c3cc(-c4ccc(Cl)cc4)nn3ccn2c1=O", "false (0)"),
    ("COc1cccc(Oc2nccn3c(=O)n(CC(=O)Nc4ccc(C)cc4Cl)nc23)c1", "false (0)"),
    ("Cc1ccc(NC(=O)Cn2nc3ccc(SC(C)(C)C)nn3c2=O)cc1C", "true (1)"),
    ("CCc1ccc(NC(=O)CSc2nnc3ccc(C(=O)Nc4cccc(F)c4)cn23)cc1", "true (1)"),
    ("O=C(Cn1nc2c(N3CCN(c4ccccc4)CC3)nccn2c1=O)Nc1ccc2c(c1)OCO2", "true (1)"),
    ("CCOc1ccc(-n2ccn3c(SCC(=O)Nc4ccc(C)cc4Cl)nnc3c2=O)cc1", "true (1)"),
    ("Cc1cc2nn(CC(=O)Nc3ccc(F)c(F)c3)c(=O)n2c(Nc2ccc(F)c(C)c2)n1", "true (1)"),
    ("CC(C)CCn1c(=O)c2ccc(C(=O)NC3CCCC3)cc2n2c(=O)n(CC#N)nc12", "false (0)"),
    ("O=C(Cn1nc2ccc(SCc3ccc(Cl)cc3)nn2c1=O)Nc1ccc(F)c(F)c1", "false (0)"),
    ("COc1ccc(NC(=O)C(C)Sc2nnc3c(=O)n(-c4cccc(OC)c4)ccn23)cc1 (stereo not given)", "false (0)"),
    ("COc1ccc(CNC(=O)CCc2nnc3c(N4CCCCC4)nc4ccccc4n23)cc1OC", "false (0)"),
    ("CC(C)CCn1c(=O)c2sccc2n2c(=O)n(CC(N)=O)nc12", "false (0)"),
    ("COc1ccc(NC(=O)CSc2nc3ccccc3n3c(C(C)C)nnc23)cc1Cl", "true (1)"),
]

* * *

In this section, each of the compounds is paired with its reported Inhibition.
tested on: Cryptococcus neoformans; settings: Concentration 32 ug.mL-1; ASSAY_TEST Inhibition of Fungal Growth; detection method Resazurin; Absorption (OD600-OD570); plate type 384well; NBS; CORNING #3640
Results with a measured potency or affinity are listed apart.

# compound, test system, Inhibition, %
records = [
    ("CC(C)(C)S(=O)(=O)c1ccc2nn(CC(=O)Nc3ccc(Br)cc3)c(=O)n2n1", "Cryptococcus neoformans", -17.49),
    ("CCC(C)NC(=O)CSc1nnc2c(=O)n(Cc3ccc(F)cc3)ccn12 (stereo not given)", "Cryptococcus neoformans", -22.53),
    ("COc1cccc(-n2ccn3c(SCC(=O)Nc4ccc(OC)c(OC)c4)nnc3c2=O)c1", "Cryptococcus neoformans", -5.69),
    ("CC(C)c1nnc2c(SCC(=O)Nc3ccc(Br)cc3F)nc3ccccc3n12", "Cryptococcus neoformans", -17.6),
    ("Cc1nnc2c(SCC(=O)Nc3ccc(F)cc3F)nc3ccccc3n12", "Cryptococcus neoformans", -22.98),
    ("CCOc1ccc(NC(=O)Cn2nc3ccc(Sc4cccc(F)c4)nn3c2=O)cc1", "Cryptococcus neoformans", -8.03),
    ("CCOc1ccc(-n2ccn3c(SC(CC)C(=O)Nc4ccc(C(C)C)cc4)nnc3c2=O)cc1 (stereo not given)", "Cryptococcus neoformans", -12.9),
    ("CCOc1ccc(-n2ccn3c(SCC(=O)c4ccccc4)nnc3c2=O)cc1", "Cryptococcus neoformans", -3.51),
    ("COc1cc(OC)c(NC(=O)Cn2nc3ccc(Sc4ccc(C)cc4)nn3c2=O)cc1Cl", "Cryptococcus neoformans", -7.45),
    ("COc1ccc(-c2cc3c4nn(CC(=O)N5CCCc6ccccc65)c(=O)n4ccn3n2)cc1", "Cryptococcus neoformans", -13.79),
]

* * *

In this section, each of the molecules is paired with its reported Inhibition.
tested on: Klebsiella pneumoniae; conditions: Concentration 32 ug.mL-1;; ASSAY_TEST Inhibition of Bacterial Growth; detection method Absorption (OD600); MEDIA CAMHB; plate type 384well; NBS; CORNING #3640; time 18 hr
Description: Antibacterial activity against Klebsiella pneumoniae MDR ATCC 70063 (CO-ADD:GN_003); MIC in CAMBH media using NBS plates, by OD(600)
Potency and affinity values are given separately.
recorded endpoint: Inhibition (%)

# molecule, test system, unit annotation, quantitative result
measured = [
    ("Cc1ccc(CNC(=O)Cn2nc3c(SC4CCCCC4)nccn3c2=O)cc1", "Klebsiella pneumoniae", "%", 14.28),
    ("CCCN(C)c1nccn2c(=O)n(CC(=O)Nc3ccc(C#N)cc3)nc12", "Klebsiella pneumoniae", "%", 16.62),
    ("O=C(Cn1nc2c3cc(-c4ccc(Cl)cc4)nn3ccn2c1=O)Nc1ccc2c(c1)OCO2", "Klebsiella pneumoniae", "%", 13.7),
    ("CCOc1ccc(NC(=O)Cn2nc3c4cc(-c5ccc(C)cc5)nn4ccn3c2=O)cc1", "Klebsiella pneumoniae", "%", 14.64),
    ("COc1cccc(Sc2nc3ccccc3n3c(=O)n(CC(=O)Nc4cccc(F)c4)nc23)c1", "Klebsiella pneumoniae", "%", 12.26),
    ("Cc1ccc(NC(=O)Cn2nc3ccc(SC(C)C)nn3c2=O)c(Cl)c1", "Klebsiella pneumoniae", "%", 9.56),
    ("CCCCOc1ccc(-c2cc3c4nnc(SCC(=O)Nc5cc(C)ccc5C)n4ccn3n2)cc1", "Klebsiella pneumoniae", "%", -2.43),
    ("Cc1nnc2c(=O)n(CC(=O)Nc3cccc(Br)c3)c3ccccc3n12", "Klebsiella pneumoniae", "%", 7.61),
    ("COc1ccc(N(Cc2cccc(F)c2)S(=O)(=O)c2ccc3nnc(C)n3c2)cc1", "Klebsiella pneumoniae", "%", 0.18),
    ("CC(C)Cn1c(=O)c2ccc(C(=O)NC3CCCCC3)cc2n2c(=O)n(CC#N)nc12", "Klebsiella pneumoniae", "%", 10.69),
    ("COc1ccc(N(Cc2cccc(OC)c2)S(=O)(=O)c2ccc3nnc(C)n3c2)cc1", "Klebsiella pneumoniae", "%", 9.44),
    ("COc1ccccc1-n1ccn2c(SCc3cc(C)ccc3C)nnc2c1=O", "Klebsiella pneumoniae", "%", 16.48),
    ("CCC(C)NC(=O)Cn1nc2n(CCC(C)C)c(=O)c3sccc3n2c1=O (stereo unspecified)", "Klebsiella pneumoniae", "%", 0.17),
    ("Cc1cccc(N(Cc2ccccc2F)S(=O)(=O)c2ccc3nncn3c2)c1", "Klebsiella pneumoniae", "%", -1.12),
    ("CC1CCc2c(sc3ncn4c(=O)n(CC(=O)Nc5ccc6c(c5)CCC6)nc4c23)C1 (stereo unspecified)", "Klebsiella pneumoniae", "%", 13.08),
    ("CCOC(=O)c1ccccc1NC(=O)Cn1nc2c(Oc3cccc(OC)c3)nccn2c1=O", "Klebsiella pneumoniae", "%", 5.46),
    ("CC1CCCN(c2nccn3c(=O)n(CC(=O)Nc4ccc(F)cc4F)nc23)C1 (stereo unspecified)", "Klebsiella pneumoniae", "%", -1.65),
    ("COc1ccccc1Cn1c(=O)c2sccc2n2c(=O)n(Cc3c(F)cccc3Cl)nc12", "Klebsiella pneumoniae", "%", 8.3),
    ("CC(C)CCNC(=O)CSc1nnc2c(=O)n(-c3ccc(F)cc3)ccn12", "Klebsiella pneumoniae", "%", 11.65),
    ("COc1ccccc1N1CCN(C(=O)CSc2nc3ccccc3n3cnnc23)CC1", "Klebsiella pneumoniae", "%", 8.29),
    ("CSc1ccc(CNC(=O)Cn2nc3c(N4CC(C)CC(C)C4)nccn3c2=O)cc1 (stereo unspecified)", "Klebsiella pneumoniae", "%", 6.58),
]

* * *

system: Candida albicans; conditions: Concentration 32 ug.mL-1; ASSAY_TEST Inhibition of Fungal Growth; detection method Absorption (OD530)
Description: Antifungal activity against Candida albicans ATCC 90028 (CO-ADD:FG_001); MIC in YNB media using NBS plates, by OD630
Measured potencies and affinities stand elsewhere.
recorded endpoint: Inhibition (%)

# compound, quantitative result
records = [
    ("COc1ccc(-c2cc3c4nn(CC(=O)Nc5cccc(OC)c5)c(=O)n4ccn3n2)cc1", 17.22),
    ("O=C(CSc1nnc2c(=O)n(-c3cccc(F)c3)ccn12)NCCc1ccccc1", 5.41),
    ("COc1ccc(NC(=O)CSc2nnc3c(=O)n(-c4ccccc4OC)ccn23)cc1Cl", 3.75),
    ("Cc1ccc(Cn2c(=O)c3ccccc3n3c(=O)n(CC(=O)Nc4ccc5c(c4)OCCO5)nc23)cc1", 0.1),
    ("CCc1ccc(NC(=O)Cn2nc3cc(C)nc(Nc4ccc(F)c(C)c4)n3c2=O)cc1", 8.83),
    ("COc1cccc(NC(=O)Cn2nc3ccc(-c4ccc(Cl)cc4)nn3c2=O)c1", 2.11),
    ("Cc1nnc2c(=O)n(CC(=O)Nc3ccc(F)cc3)c3ccccc3n12", 0.41),
    ("Cc1cccc(CN(c2cccc(Cl)c2)S(=O)(=O)c2cccn3c(C)nnc23)c1", 1.52),
    ("Cc1nnc2c(S(=O)(=O)N(Cc3cccc(Cl)c3)c3ccc(F)c(F)c3)cccn12", 2.06),
    ("COc1ccc(-c2cc3c4nn(CC(=O)Nc5ccccc5)c(=O)n4ccn3n2)cc1", 6.28),
    ("COc1ccccc1NC(=O)Cn1nc2c3cc(-c4ccc(C)c(C)c4)nn3ccn2c1=O", -1.16),
    ("CSc1cccc(NC(=O)Cn2nc3c(Sc4ccc(C)cc4C)nccn3c2=O)c1", 2.24),
    ("COc1ccccc1NC(=O)Cn1nc2c(Oc3ccc(Cl)cc3)nccn2c1=O", 22.33),
    ("Cc1nnc2c(S(=O)(=O)N(Cc3ccc(F)cc3)c3ccc(C(C)C)cc3)cccn12", 2.93),
    ("CCCc1nnc2c(=O)n(CC(=O)Nc3ccc(C(C)=O)cc3)c3ccccc3n12", -1.78),
    ("CN(C(=O)Cn1nc2n(Cc3ccco3)c(=O)c3sccc3n2c1=O)c1ccccc1", 2.07),
    ("Cc1ccc(NC(=O)Cn2nc3ccc(-c4ccc(C)c(C)c4)nn3c2=O)cc1", -0.59),
    ("CCCCn1c(=O)c2sccc2n2c(=O)n(CC(=O)N3CCCC(C(=O)OCC)C3)nc12 (stereo not given)", -3.31),
    ("CC(C)Cn1c(=O)c2sccc2n2c(=O)n(Cc3ccccc3Cl)nc12", 1.39),
    ("COc1cccc(-n2ccn3c(SCC(=O)c4c(C)[nH]c5ccccc45)nnc3c2=O)c1", 3.81),
]
